Each record here notes measured log10 of IC50.
target: mutant cKIT (560-576 and V654A) in GIST430/654 cell line (Homo sapiens (Human), UniProt P10721, DEL560-576/V654A); experiment: Cellular testing of cKIT mutant inhibitors: phospho-Y307-cKIT Luminex assay in GIST430/654 cells; assay type: cell-based; conditions: Table 1; cKIT autophosphorylation, compounds 45 min; read-out: GIST 430/654 IC50
Sequence (P10721 other isoform, or with tags, fused parts or gaps V654A/del 1-25/del 560-576 limits assumed): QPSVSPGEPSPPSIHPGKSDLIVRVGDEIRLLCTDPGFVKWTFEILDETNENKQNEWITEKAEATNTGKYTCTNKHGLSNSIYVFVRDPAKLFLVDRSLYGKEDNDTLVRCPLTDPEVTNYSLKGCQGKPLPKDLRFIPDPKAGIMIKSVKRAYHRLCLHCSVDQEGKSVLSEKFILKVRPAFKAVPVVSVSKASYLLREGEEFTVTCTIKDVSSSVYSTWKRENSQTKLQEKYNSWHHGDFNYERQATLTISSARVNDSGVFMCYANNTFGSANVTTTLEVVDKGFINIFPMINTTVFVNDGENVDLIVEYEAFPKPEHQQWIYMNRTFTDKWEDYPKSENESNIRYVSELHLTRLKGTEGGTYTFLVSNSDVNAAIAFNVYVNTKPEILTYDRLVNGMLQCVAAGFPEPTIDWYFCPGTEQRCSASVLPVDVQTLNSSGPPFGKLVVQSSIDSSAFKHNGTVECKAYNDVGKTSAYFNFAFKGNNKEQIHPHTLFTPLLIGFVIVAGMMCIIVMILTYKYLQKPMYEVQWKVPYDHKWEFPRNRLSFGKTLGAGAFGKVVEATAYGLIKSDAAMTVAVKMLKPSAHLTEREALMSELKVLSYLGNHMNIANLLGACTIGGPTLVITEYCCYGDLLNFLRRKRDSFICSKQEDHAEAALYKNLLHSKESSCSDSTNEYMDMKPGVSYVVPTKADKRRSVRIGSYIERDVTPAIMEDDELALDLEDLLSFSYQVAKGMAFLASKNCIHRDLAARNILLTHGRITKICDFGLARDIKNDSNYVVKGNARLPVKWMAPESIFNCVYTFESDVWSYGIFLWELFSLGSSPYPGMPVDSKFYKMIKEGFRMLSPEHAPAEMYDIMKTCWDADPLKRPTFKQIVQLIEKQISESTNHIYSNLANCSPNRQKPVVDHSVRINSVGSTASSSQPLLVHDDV
Please be aware that the numbers have been log10-transformed from IC50 in nM.

Look over these answered cases.
# SMI, log10 of IC50
records = [
    ("COCCOc1cc2[nH]nc(-c3cc(-c4ccc(C(=O)N5CC[C@@H]5C(C)(C)O)nc4)no3)c2cc1F", 2.53),
    ("COCCOc1cc2[nH]nc(-c3cc(-c4ccc(NC(C)=O)cc4)no3)c2cc1F", 2.20),
    ("COCCOc1cc2[nH]nc(-c3cc(-c4ccc(C(=O)N5CCC[C@H]5C(C)(C)O)nc4)no3)c2cc1F", 1.72),
    ("COCCOc1cc2[nH]nc(-c3cc(-c4ccc(C(=O)N(C)C)cc4)no3)c2cc1F", 1.68),
    ("COCCOc1cc2[nH]nc(-c3cc(-c4ccc(OCCN5CCOCC5)cc4)no3)c2cc1F", 2.15),
    ("COCCOc1cc2[nH]nc(-c3cc(-c4ccc(C(=O)N5CCN(C)C(=O)C5)cc4)no3)c2cc1F", 2.08),
    ("COCCOc1cc2[nH]nc(-c3cc(-c4ccc(C(=O)N5CC6CC(C5)O6)cc4)no3)c2cc1F", 1.60),
]

IN: Suppose we examine the compound COCCOc1cc2[nH]nc(-c3cc(-c4ccc(C(=O)N5CC(N6CCOCC6)C5)cc4)no3)c2cc1F ; what log10 of IC50 value has been reported?
OUT: 1.18
